target: Mu-type opioid receptor (Homo sapiens) (UniProt P35372); assay: Agonist activity at MOR (unknown origin) assessed as beta-arrestin2 recruitment at 1 uM incubated for 90 to 180 mins by chemiluminescence based microplate reader assay relative to control; type: functional; conditions: time 90-180 min
Sequence (P35372 whole entry): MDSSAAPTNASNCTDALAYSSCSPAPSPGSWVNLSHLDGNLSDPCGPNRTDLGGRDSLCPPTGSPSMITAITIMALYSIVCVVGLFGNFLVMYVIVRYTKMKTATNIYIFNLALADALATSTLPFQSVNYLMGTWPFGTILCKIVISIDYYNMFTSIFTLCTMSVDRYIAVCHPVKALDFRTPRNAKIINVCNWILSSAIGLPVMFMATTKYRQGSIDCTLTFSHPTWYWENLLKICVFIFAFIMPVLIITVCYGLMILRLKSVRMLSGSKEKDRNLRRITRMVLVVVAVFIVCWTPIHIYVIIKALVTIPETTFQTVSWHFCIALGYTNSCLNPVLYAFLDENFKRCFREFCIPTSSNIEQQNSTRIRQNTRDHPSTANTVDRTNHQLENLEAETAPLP
recorded.metric: Activity (%)
Express the result in % but write the number alone.

| molecule | unit.text | Activity |
| --- | --- | --- |
| CC(Cc1ccco1)N/C(=N\C#N)NC[C@H](Cc1ccccc1)N(C)C (stereo partly specified) | % | -1 |
| CC(Cc1ccc[nH]1)N/C(=N\C#N)NC[C@H](Cc1ccccc1)N(C)C (stereo partly specified) | % | -0.4 |
| CN(C)[C@H](CN/C(=N/C#N)NCCc1ccccc1)Cc1ccccc1 | % | -0.2 |
| CC(Cc1c[nH]cn1)N/C(=N\C#N)NC[C@H](Cc1ccccc1)N(C)C (stereo partly specified) | % | -0.1 |
| CN(C)[C@H](CN/C(=N/C#N)NCCc1cccc(F)c1)Cc1ccccc1 | % | -0.3 |

Inquiry: Returns the measured Activity for the input molecule. Input: CC(Cc1cc[nH]n1)N/C(=N\C#N)NC[C@H](Cc1ccccc1)N(C)C (stereo partly specified)
Reply text: -0.7
